Consider the following binders and their measured ELISA [abs. corr.] readings.
tested-system: T1, CD27 protein (His-tagged, Sino Biological Inc. 10039-H08B1) (human, UniProt P26842 20-192)
T1 construct: bought; coated onto ELISA plates; also called human CD27; recombinant protein; not shown: His tag
T1 sequence (looked up): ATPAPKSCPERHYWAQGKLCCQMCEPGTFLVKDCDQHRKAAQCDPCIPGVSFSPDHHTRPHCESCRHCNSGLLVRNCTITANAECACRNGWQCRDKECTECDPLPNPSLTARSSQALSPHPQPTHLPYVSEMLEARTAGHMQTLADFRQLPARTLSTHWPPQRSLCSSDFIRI
test-details: ELISA on coated His-tagged CD27; further: test concentration or dose not given here
Provide only the numeric value, understood in abs. corr..

IN: Tell me its ELISA [abs. corr.] given P018.S.07.A.H02 (antibody, V domains shown, V regions on human Ig constant parts; also called AB27_131) VH: QEQLVESGGGLVQPEGSLTLTCKASGFDFSSDAMCWVRQAPGKGLEWIACIYVGSVGSSWYASWAKGRFTISKSSSTTVTLQVTSLTAADTATYFCARGENIAYFTFWGPGTLVTVSS VL: DIMMTQTPASVSAAVGGTVTIKCQASQSINSWLSWYQQKPGQPPKLLIYKASTLASGVPSRFEGSGSGTEFTLTISDLESADAATYYCQGYYYYSSSNFASNAFGGGTEVVVK as the entry.
OUT: 3.47

IN: Input P018.S.01.A.C05 (antibody, V domains shown, V regions on human Ig constant parts; also called AB27_9) VH: QSLEESGGGLVQPEGSLTLTCTASGFSFSSRYYMCWVRQAPGKGLELIACIDTSSGSTWYASWAKGRFTVSKTSSTTVTLQMTSLTAADTATYFCARDLYHENSDGDWWGPGTLVTVSS VL: AFELTQTPSSVEAAVGGTVTIKCQASESINNYLAWYQQKPGQPPKLLIYKASTLASGVSSRFKGSGSGTDFTLTISGVQSDDAATYYCQSYYGASGSGSNVFGGGTEVVVK , output reported ELISA [abs. corr.].
OUT: 3.19

IN: Please report the measured ELISA [abs. corr.] for P018.S.02.A.A01 (antibody, V domains shown, V regions on human Ig constant parts; also called AB27_27) VH: QSVEESGGRLVTPGTPLTLTCTVSGIDLSRYAMGWVRQAPGKGLEYIGIISSSGSTYYASWIKGRFTISKTSTTVDLKITSPTTEDTATYFCARSPYASTSASAFNLWGPGTLVTVSS VL: AFELTQTPSSVEAAVGGTVTIKCQASQSISSWLSWYQQKPGQPPKLLIYEASKLASGVPSRFKGSGSGTQFTLTISDLESADAATYYCQSYSSTTTNTFGGGTEVVVK
OUT: 3.23

IN: Please look at this binder and report its ELISA [abs. corr.]: P018.S.01.A.B03 (antibody, V domains shown, V regions on human Ig constant parts; also called AB27_4) VH: QSLEESGGRLVTPGTPLTLTCTVSGFSLSSNAMSWVRQAPGEGLEWIGTIYTHGSSYYATWAKGRFTISKTSSTTVDLKMTSLTTEDTATYFCAGWAGGLSLWGPGTLVTVSS VL: DVVMTQTPASVSEPVGGTVTIKCQASEDIDNALAWYQQKPGQAPKILIYSASTLPSGVPSRFKGSGSGTQFTLTISDLESADAATYYCQSAYGGTYGDGFGGGTEVVVK
OUT: 3.3

IN: // fetch ELISA [abs. corr.] given entry P018.S.01.A.A04 (antibody, V domains shown, V regions on human Ig constant parts; also called AB27_1) VH: QSVEESGGRLVTPGTPLTLTCTVSGFSLSRYWVSWVRQAPGKGLEAIGVIDNGDTAYYASWAKGRFTISKTSSITVDLKMTSLTTEDTATYFCTREGADHSGQDLWGQGTLVTVSS VL: AAVLTQTPSPVSAAVGGTVTINCQASQSVISNNDLSWYQQKPGQPPKLLIYRASNLASGVPSRFEGSGSGTQFTLTISDLESEDAATYYCQGGYAGIVDRRPFGGGTEVVVK
OUT: 3.24
